Target: T1, GST-tagged PAH1 (paired amphipathic helix 1 domain of Sin3B) (UniProt Q62141 31-107)
T1 chain: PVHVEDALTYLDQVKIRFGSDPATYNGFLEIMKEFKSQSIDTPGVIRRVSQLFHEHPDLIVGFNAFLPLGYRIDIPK
Assay: SPR
Where no end group is shown, it is not given here.
Observed Property: Kd (nM)
Numeric only. Scale: nM

Determine from records and report Kd for APQLIMLANVALTGE (also: biotin, site not given here) [biotinylated REST peptide (RE-1 silencing transcription factor, binding surface for Sin3B PAH1)] 0.468
